target: canine FcRn (FcRn large subunit with canine beta-2-microglobulin) (canine); test: SPR pH 6.0, IgG coupled to CM5, FcRn 50-800 nM
observable: kon (M⁻¹ s⁻¹)

INSERT INTO results (binder, observed_result) VALUES
  ('anti-NGF canine IgGB antibody, Fc variant N434R + Y436H (antibody, part only; not given: Anti-NGF variable domains, not shown: another chain or arm of the molecule) Fc: APEMLGGPSVFIFPPKPKDTLLIARTPEVTCVVVDLDPEDPEVQISWFVDGKQMQTAKTQPREEQFNGTYRVVSVLPIGHQDWLKGKQFTCKVNNKALPSPIERTISKARGQAHQPSVYVLPPSREELSKNTVSLTCLIKDFFPPDIDVEWQSNGQQEPESKYRTTPPQLDEDGSYFLYSKLSVDKSRWQRGDTFICAVMHEALHRHHTQESLSHSPGK', 262000),
  ('anti-NGF canine IgGB antibody, Fc variant N434R + T286Y (antibody, part only; not given: anti-NGF variable domains and light chain, not shown: another chain or arm of the molecule) Fc: APEMLGGPSVFIFPPKPKDTLLIARTPEVTCVVVDLDPEDPEVQISWFVDGKQMQYAKTQPREEQFNGTYRVVSVLPIGHQDWLKGKQFTCKVNNKALPSPIERTISKARGQAHQPSVYVLPPSREELSKNTVSLTCLIKDFFPPDIDVEWQSNGQQEPESKYRTTPPQLDEDGSYFLYSKLSVDKSRWQRGDTFICAVMHEALHRHYTQESLSHSPGK', 236000),
  ('canine IgGA antibody, Fc variant A426Y, variable domain of Gearing et al. 2013 (antibody, part only; not given: Variable domains, not shown: another chain or arm of the molecule; small tags and cut ends) Fc: VPEPLGGPSVLIFPPKPKDILRITRTPEVTCVVLDLGREDPEVQISWFVDGKEVHTAKTQSREQQFNGTYRVVSVLPIEHQDWLTGKEFKCRVNHIDLPSPIERTISKARGRAHKPSVYVLPPSPKELSSSDTVSITCLIKDFYPPDIDVEWQSNGQQEPERKHRMTPPQLDEDGSYFLYSKLSVDKSRWQQGDPFTCYVMHETLQNHYTDLSLSHSPGK', 48900);
